test system: Bacillus subtilis DB104 (SP-AmyQ fusion secretion); assay: AmyQ secretion efficiency, weighted average sort bin (1 = best secretion, 10 = worst) (bin number (weighted average, 1-10)); higher = lower secretion efficiency
quantity: AmyQ secretion efficiency

# sequence input, experimental value
measured = [
    ("MKKKLAAGLTASAIVGTTLVIVTPAEAATI", 3.35),
    ("MGTTIIILLLAVIIAAAAAGVAFYV", 7.47),
    ("MMKKLFHSTLIVLLFFSFFGVQPIHAKKR", 2.74),
    ("MKRLLVSLRVWMVFLMNWVTPDRKTAADAVY", 5.95),
    ("MRPVFPLILSAVLFLSCFFGARQTEASHSKR", 2.35),
    ("MHLIRAAGAVCLAVVLIAGCRFNEDQHQAESENT", 3.48),
    ("MKKRQIAPGLLSAASLAFFAMSGSAQAAAY", 4.58),
    ("MLKKVILAAFILVGSTLGRRKRKSRASAKHV", 5.28),
    ("MKKIGLLFMLCLAALRRRKRKRQQADAAEA", 6.59),
    ("MKKWIYVVLVLSIAGIGGFSDHAASS", 6.49),
    ("MAIIIAIIAAVIVIAALITFNVRNYSPG", 7.13),
    ("MRPVFPLILSAVLFLSCFFFGARQTEASASKR", 1.8),
    ("MKWMCSICCAAVLLAGTVFLLGAAQAEAV", 3.59),
]

---

tested on: Bacillus subtilis DB104 (SP-AmyQ fusion secretion); experiment: AmyQ secretion efficiency, weighted average sort bin (1 = best secretion, 10 = worst) (bin number (weighted average, 1-10)); higher = lower secretion efficiency
Classification field: enter 1.0 for AmyQ secretion efficiency values not below 3, 0.0 for values below it.

# sequence input, class label
rows = [
    ("MKKTIMSTYGVAALSTTAFGAHASAKEI", 1.0),
    ("MGLGKKLSVAVAASFMSLSISLVSVQAAEG", 0.0),
    ("MKKKQVSHAIIISVMLSFVIAVFHTIHKSELTP", 1.0),
    ("MKRKLLSSLAISALSLGLLVSAPTAWFAAES", 1.0),
    ("MKKRLIGFLVLVPALIMSGITLIERNKK", 1.0),
    ("MKLRKVLTGSVLSLGLLVSASPAFATRK", 0.0),
    ("MHLIRAAGAVCLAVVLIAGCRDEEDEHQAEGENT", 1.0),
    ("MKNMSCKLVVSVTLFFSFLFTIGPLAHAQNS", 0.0),
    ("MYNRKRRVCFLAALIMAFTLPNSVYAQKP", 0.0),
    ("MKRTTNLTMLCLWFTVFSLFLVLLPGKALGAVD", 1.0),
    ("MFNRLFRVCFLAALIMAFTLPNSKYAQKP", 1.0),
    ("MKKAAAVLLSLGLVFKFSYGAGHVAEAKTK", 1.0),
    ("MKRTWNVCLTALLSVPFHAEAKKP", 1.0),
]

---

test system: Bacillus subtilis DB104 (SP-AmyQ fusion secretion); test: AmyQ secretion efficiency, weighted average sort bin (1 = best secretion, 10 = worst) (bin number (weighted average, 1-10)); higher = lower secretion efficiency
Classification field: enter yes (1) for AmyQ secretion efficiency values not below 6, no (0) for values below it.

# sequence input, class label
records = [
    ("MPYLKRVLLLLVTGLFMSLFRKRRKRASAQTG", "yes (1)"),
    ("MKQFAITLSVLCALILLVPTLLVIPFQHNKEAMASV", "yes (1)"),
    ("MFKKLLLATSALTFSLSLVLDAKAQEV", "no (0)"),
    ("MIKAAAVLLSLGLVFGFSYGAGHVAEAKTK", "no (0)"),
    ("MFKKHTISLLIIFLLALTSAVLAKPIEAHTV", "no (0)"),
    ("MKVCQKSIVRFRKRRIIGTFVISVPFMANAQSD", "yes (1)"),
    ("MKKTIMSFVAVAALSTTAFGAHASPKEI", "no (0)"),
    ("MKSCKQLIVCSLAAILLLIPSVSFSADS", "no (0)"),
    ("MIKVLMAFIICLSLILSVLAAPPSGAKAESV", "no (0)"),
    ("MLMLCLWFTVFSLFLVLLPGKALGAVD", "no (0)"),
    ("MKRLLVSLRVWMVFLMNWVTPDRKTDAAAVY", "yes (1)"),
    ("MKKCLLFLTTIALILISLSTNAFAKNT", "no (0)"),
]
